SYSTEM_NAME: KRAS-G12V (Homo sapiens, UniProt P01116, G12V)
Sequence (P01116 with tags, fused parts or gaps isoform P01116-2 G12V): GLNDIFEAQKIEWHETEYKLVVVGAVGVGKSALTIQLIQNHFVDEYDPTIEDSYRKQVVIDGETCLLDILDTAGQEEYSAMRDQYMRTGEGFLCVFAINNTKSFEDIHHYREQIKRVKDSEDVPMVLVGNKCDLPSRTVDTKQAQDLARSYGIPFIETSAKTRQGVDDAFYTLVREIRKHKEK
EXPERIMENT_DESCRIPTION: SOS-catalyzed nucleotide exchange assay (Procedure A, TR-FRET), KRAS-G12V
Type: biochemical
STUDY_CONDITIONS: nucleotide exchange, read-out: KRAS G12V GNE IC50
pIC50: −log10 of the molar value.
Mark y for reported pIC50 of 7 or greater; mark n for anything smaller.

Examples with answers:
[[record]]
query_smiles = "Cc1cc2[nH]ncc2c(-c2ncnc3c2sc2nc(OC[C@@]45CCCN4C[C@H](F)C5)nc(N4CCOC[C@@](C)(O)C4)c23)c1C(F)(F)F"
qualitative_label = "n"

[[record]]
query_smiles = "Cc1cc2[nH]ncc2c(-c2nccc3c2sc2nc(OC[C@@]45CCCN4C[C@H](F)C5)nc(NC4CCC4)c23)c1C(F)(F)F"
qualitative_label = "n"

[[record]]
query_smiles = "C#Cc1c(F)sc2cc3[nH]ncc3c(-c3nccc4c3sc3nc(OC[C@@]56CCCN5C[C@H](F)C6)nc(N5CCOC[C@@](C)(O)C5)c34)c12"
qualitative_label = "y"

[[record]]
query_smiles = "C[C@@H]1CCN1C[C@@]1(COc2nc(N3CCOC[C@@](C)(O)C3)c3c(n2)sc2c(-c4c(C5(F)CC5)c(Cl)cc5[nH]ncc45)nccc23)CC1(F)F"
qualitative_label = "y"


Please examine the following record next.
Exercise: Has Cc1cc2[nH]ncc2c(-c2nncc3c2sc2nc(OC[C@@]45CCCN4C[C@H](F)C5)nc(N4CCOC[C@@](C)(O)C4)c23)c1-c1ccco1 a recorded pIC50 greater than or equal to 7?
Key: y
